# experiment: Half life in Sprague-Dawley rat at 10 mg/kg, po
# Format: ADME, organism-based
# measurement setup: in vivo
Each entry below carries its reported half-life.
Record the value in h, omitting the unit from your answer.

Solved entries:
| compound | value unit | half-life |
| --- | --- | --- |
| O=C1CCC(N2Cc3cc(CNC(=O)C4=Cc5cccc(C(F)(F)F)c5OC4)ccc3C2=O)C(=O)N1 (stereo not drawn) | h | 6.95 |
| O=C1CCC(N2Cc3cc(CNC(=O)C4=Cc5cccc(F)c5OC4)ccc3C2=O)C(=O)N1 (stereo not drawn) | h | 4.1 |
| COc1cccc2c1OCC(C(=O)NCc1ccc3c(c1)CN(C1CCC(=O)NC1=O)C3=O)=C2 (stereo not drawn) | h | 5.65 |
| O=C1CCC(N2Cc3cc(CNC(=O)C4=Cc5cccc(OC(F)(F)F)c5OC4)ccc3C2=O)C(=O)N1 (stereo not drawn) | h | 6.19 |
| O=C1CCC(N2Cc3cc(CNC(=O)C4COc5ccccc5C4)ccc3C2=O)C(=O)N1 (stereo not drawn) | h | 3.71 |

Provide measured half-life value, entry: O=C1CCC(N2Cc3ccc(COC(=O)Nc4cc(OC(F)(F)F)ccc4F)cc3C2=O)C(=O)N1 (stereo not drawn)
4.77

Provide measured half-life value, entry: CO/N=C(\Cc1ccc(C)c(Cl)c1)C(=O)NCc1ccc2c(c1)CN(C1CCC(=O)NC1=O)C2=O (stereo not drawn)
1.32

Provide measured half-life value, entry: O=C1CCC(N2Cc3cc(CNC(=O)C4=Cc5cc(OC(F)(F)F)ccc5OC4)ccc3C2=O)C(=O)N1 (stereo not drawn)
3.71

====

# experiment: Observed volume of distribution at steady state in Sprague-Dawley rat at 2 mg/kg, iv
# Format: ADME, organism-based
# measurement setup: in vivo, read-out: Vdss
readout: Vd
Output should be the measured figure followed by the unit it is expressed in.

| molecule | Vd |
| --- | --- |
| Cc1ccc(C/C(=N\O)C(=O)NCc2ccc3c(c2)CN(C2CCC(=O)NC2=O)C3=O)cc1Cl (centres undefined) | 3.14 L/kg |
| O=C1CCC(N2Cc3cc(CNC(=O)C4COc5ccccc5C4)ccc3C2=O)C(=O)N1 (centres undefined) | 1.57 L/kg |
| CO/N=C(\Cc1ccc(C)c(Cl)c1)C(=O)NCc1ccc2c(c1)CN(C1CCC(=O)NC1=O)C2=O (centres undefined) | 1.34 L/kg |

Switching to the query record.
Provide measured Vd value, entry: O=C1CCC(N2Cc3cc(CNC(=O)C(F)(F)c4ccc(Cl)cc4)ccc3C2=O)C(=O)N1 (centres undefined)
2.74 L/kg

====

# experiment: AUC last in mouse at 2 mg/kg, iv
# Assay type: ADME, organism-based
# measurement setup: in vivo
readout: AUC(0-t) (ng·h/mL)
Record the value in ng·h/mL, omitting the unit from your answer.

Provide measured AUC(0-t) value, entry: O=C1CCC(N2Cc3cc(CNC(=O)C4=Cc5cc(OC(F)(F)F)ccc5OC4)ccc3C2=O)C(=O)N1 (stereo unspecified)
8810

====

# experiment: AUC last in Sprague-Dawley rat at 10 mg/kg, ip
# Format: ADME, organism-based
# measurement setup: in vivo
readout: AUC(0-t) (ng·h/mL)
Record the value in ng·h/mL, omitting the unit from your answer.

Solved entries:
| molecule | AUC(0-t) (ng·h/mL) |
| --- | --- |
| Cc1ccc(C/C(=N\O)C(=O)NCc2ccc3c(c2)CN(C2CCC(=O)NC2=O)C3=O)cc1Cl (stereo not drawn) | 2790 |
| O=C1CCC(N2Cc3cc(CNC(=O)C4COc5ccccc5C4)ccc3C2=O)C(=O)N1 (stereo not drawn) | 4600 |

Switching to the query record.
Provide measured AUC(0-t) value, entry: O=C1CCC(N2Cc3cc(CNC(=O)C(F)(F)c4ccc(Cl)cc4)ccc3C2=O)C(=O)N1 (stereo not drawn)
1890

Data origin: ChEMBL document CHEMBL6121050
